system: ATS95; assay: qHTS profiling for inhibitors of Plasmodium falciparum proliferation (AID 504749); also: nearly all actives have a fitted effect of over 60% in size; conditions: P. falciparum in erythrocytes, SYBR Green DNA, 72 h; series mostly up to 28.7 µM
Results filed as inconclusive are left out. Activity calls are given as the source filed them. Calls follow the shape of the dose curve; as a rule, active = well fitted inhibition curve with a large enough effect; inconclusive = small, poorly fitted or top-dose-only effect; inactive = flat fitted curve, though single readings scatter. Bridge positions count the residues as written; N and C are the ends. Square brackets hold non-standard residues; d marks the D form. Peptide text beside a SMILES is read from it. * marks the point of attachment. Octanoyl(6-Me) = CCC(C)CCCCC(=O)*; Dab = NCC[CH](N)C(=O)O
The reply should name one outcome from label 1 = active, label 0 = inactive

// param item: Cc1cc(CC(C)CC(C)(C)C)n(O)c(=O)c1 (stereo not drawn) ; yields the recorded call
label 1

// param item: C1OCOCO1 ; yields the recorded call
label 0

// param item: CCN1/C(=C/C=C/C=C/c2sc3ccccc3[n+]2CC)Sc2ccccc21 ; yields the recorded call
label 1

// param item: C=C[C@]1(C)C[C@@H](OC(=O)CSCCN(CC)CC)[C@]2(C)C(C)CC[C@]3(CCC(=O)[C@H]32)[C@@H](C)[C@@H]1O (stereo partly drawn) ; yields the recorded call
label 1

// param item: O=NCc1ccc([N+](=O)[O-])o1 ; yields the recorded call
label 0

// param item: CO[C@@H]1[C@@H](OC2OC(C)C(OC3CC(C)(O)C(OC(=O)CC(C)C)C(C)O3)C(N(C)C)C2O)[C@@H](CC=O)C[C@@H](C)C(=O)/C=C\C2O[C@H]2C[C@@H](C)OC(=O)C[C@H]1OC(C)=O (stereo partly drawn) ; yields the recorded call
label 1

// param item: CN(C)CCCCCCN(C)C ; yields the recorded call
label 0

// param item: NC1=NC(S)C2N=CN=C2N1 (stereo not drawn) ; yields the recorded call
label 0

// param item: CCC(C)CCCCC(=O)NC(CCN)C(=O)NC(C(=O)NC(CCN)C(=O)NC1CCNC(=O)C(C(C)O)NC(=O)C(CCN)NC(=O)C(CCN)NC(=O)C(CC(C)C)NC(=O)C(Cc2ccccc2)NC(=O)C(CCN)NC1=O)C(C)O (stereo not drawn) ({Octanoyl(6-Me)}-[Dab]T[Dab][Dab][Dab]FL[Dab][Dab]T; lactam 4-C; configuration not given here) ; yields the recorded call
label 0

// param item: CO/N=C(/C(=O)N[C@@H]1C(=O)N2C(C(=O)O)=CCS[C@H]12)c1csc(N)n1 ; yields the recorded call
label 0

// param item: C/C=C\c1ccc(OC)cc1 ; yields the recorded call
label 0

// param item: CC(C)CN(C[C@@H](OP(=O)(O)O)[C@H](Cc1ccccc1)NC(=O)O[C@@H]1CCOC1)S(=O)(=O)c1ccc(N)cc1 ; yields the recorded call
label 0

// param item: CC1CCC(C(C)C)C(OC(=O)c2ccccc2O)C1 (stereo not drawn) ; yields the recorded call
label 0

====

tested on: DFO2036; assay: qHTS profiling for inhibitors of Plasmodium falciparum proliferation (AID 504749); also: nearly all actives have a fitted effect of over 60% in size; conditions: P. falciparum in erythrocytes, SYBR Green DNA, 72 h; series mostly up to 28.7 µM
Results filed as inconclusive are left out. Active and inactive are the calls of the source. Calls come from the whole dose curve; as a rule, active = well fitted inhibition curve with a large enough effect; inconclusive = small, poorly fitted or top-dose-only effect; inactive = flat fitted curve, though single readings scatter.
The reply should name one outcome from active, inactive

// param item: C/C=C\c1ccc(OC)cc1 ; yields the recorded call
inactive

// param item: CC1(C)S[C@@H]2[C@H](NC(=O)COc3ccccc3)C(=O)N2[C@H]1C(=O)O ; yields the recorded call
inactive

// param item: S=C1NC=NC2N=CNC12 (configuration not stated) ; yields the recorded call
inactive

// param item: CC(=O)OC1CC2CCC1(C)C2(C)C (configuration not stated) ; yields the recorded call
inactive

// param item: O=NCc1ccc([N+](=O)[O-])o1 ; yields the recorded call
inactive

// param item: CCC(C)n1ncn(-c2ccc(N3CCN(c4ccc(OCC5COC(Cn6cncn6)(c6ccc(Cl)cc6Cl)O5)cc4)CC3)cc2)c1=O (configuration not stated) ; yields the recorded call
inactive

// param item: NC1=NC(S)C2N=CN=C2N1 (configuration not stated) ; yields the recorded call
inactive

// param item: CC(C)CN(C[C@@H](OP(=O)(O)O)[C@H](Cc1ccccc1)NC(=O)O[C@@H]1CCOC1)S(=O)(=O)c1ccc(N)cc1 ; yields the recorded call
inactive

// param item: CCC(=O)O[C@@H](OP(=O)(CCCCc1ccccc1)CC(=O)N1C[C@H](C2CCCCC2)C[C@H]1C(=O)O)C(C)C (some centres not stated) ; yields the recorded call
inactive

// param item: CN(C)CCCCCCN(C)C ; yields the recorded call
inactive

// param item: CC(C)CN(C[C@@H](O)[C@H](Cc1ccccc1)NC(=O)O[C@H]1CCOC1)S(=O)(=O)c1ccc(N)cc1 ; yields the recorded call
inactive

// param item: CO[C@@H]1[C@@H](OC2OC(C)C(OC3CC(C)(O)C(OC(=O)CC(C)C)C(C)O3)C(N(C)C)C2O)[C@@H](CC=O)C[C@@H](C)C(=O)/C=C\C2O[C@H]2C[C@@H](C)OC(=O)C[C@H]1OC(C)=O (some centres not stated) ; yields the recorded call
active

// param item: CC(=O)O[C@@]12CO[C@@H]1C[C@H](O)[C@@]1(C)C(=O)[C@H](O)C3=C(C)[C@@H](OC(=O)C(O)[C@@H](NC(=O)OC(C)(C)C)c4ccccc4)C[C@@](O)([C@@H](OC(=O)c4ccccc4)[C@H]21)C3(C)C (some centres not stated) ; yields the recorded call
active

// param item: CCN1/C(=C/C=C/C=C/c2sc3ccccc3[n+]2CC)Sc2ccccc21 ; yields the recorded call
active

// param item: Cc1cc(CC(C)CC(C)(C)C)n(O)c(=O)c1 (configuration not stated) ; yields the recorded call
active

// param item: C=C[C@]1(C)C[C@@H](OC(=O)CSCCN(CC)CC)[C@]2(C)C(C)CC[C@]3(CCC(=O)[C@H]32)[C@@H](C)[C@@H]1O (some centres not stated) ; yields the recorded call
active

// param item: C1OCOCO1 ; yields the recorded call
inactive
